Recorded measurements of OD450, one per entry
- system_name: T1, Peptide 4: Biotin-AGGGGSGGGGSGGGGSAAA-Tyr-acid (N-terminal biotin; C-terminal acid; no PC)
- T1 construct: control peptide without PC
- T1 peptide: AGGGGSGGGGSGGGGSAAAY
- assay_method_text: scFv ELISA
Your answer is read as OD450, so omit the unit and give the number.

# OD450 lookup, item PcOxP_DB04_A09 (scFv, V domains shown, scFv in periplasmic extract) VH: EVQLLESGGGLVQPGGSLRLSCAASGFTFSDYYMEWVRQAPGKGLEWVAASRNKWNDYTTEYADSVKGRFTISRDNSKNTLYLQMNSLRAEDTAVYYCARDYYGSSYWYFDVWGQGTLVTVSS VL: DIQMTQSPSSLSASVGDRVTITCTAEESLYSSKHKVHYLAWYQQKPGKAPKLLIYGASNLYSGVPSRFSGSGSGTDFTLTISSLQPEDFATYYCAQFYSYPLTFGGGTKVEIK
0.06

How about this binder: PcOxP_DB01_C07 (scFv, V domains shown, scFv in periplasmic extract) VH: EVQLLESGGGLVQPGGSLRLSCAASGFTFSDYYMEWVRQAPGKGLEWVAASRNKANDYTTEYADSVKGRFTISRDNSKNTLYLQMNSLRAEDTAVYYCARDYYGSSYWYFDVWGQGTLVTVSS VL: DIVMTQSPDSLAVSLGERATINCTASESLYSSKHKVHYLAWYQQKPGQPPKLLIYGASNRYDGVPDRFSGSGSGTDFTLTISSLQAEDVAVYYCAQFYSYPLTFGGGTKVEIK
0.04

Same read-out for PcOxP_DB01_G03 (scFv, V domains shown, scFv in periplasmic extract) VH: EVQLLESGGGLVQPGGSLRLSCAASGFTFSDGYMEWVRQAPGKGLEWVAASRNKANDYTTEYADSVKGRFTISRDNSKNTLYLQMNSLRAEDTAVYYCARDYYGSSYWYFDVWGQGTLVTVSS VL: DIVMTQSPDSLAVSLGERATINCTASTSLYSSKHKVHYLAWYQQKPGQPPKLLIYGASNRYIGVPDRFSGSGSGTDFTLTISSLQAEDVAVYYCAQFYTYPLTFGGGTKVEIK ?
0.05

Origin of the recorded values: patent US20250320312A1
